test: folding stability dG unfold from chymotrypsin proteolysis; higher = more stable
Answer each item with its documented folding stability dG unfold.
Dear colleague, please return just the value in kcal/mol, with no unit written.

Lab note: SAGATESETFALPGGEEVTVTTTYTPLPGDALRTTVTTWTTTLGPSGPAVTTATTTTTYPPELAAAGASAGG [r19_63_JUSTAS] gave folding stability dG unfold of 0.0387

Lab note: SSSGPKTELITLKYEEPVRSPEEAEARARALAEEIAERTGAPIEVDVEIEYDPETGKAYVTVPVRVLLPDSA [r9_741_JUSTAS] gave folding stability dG unfold of 0.124

Lab note: SAGGSAPKTVTFTTPKGYPITVTPGDRTVTLTHPDRPLATFDVPPDVPTFTITLPDGDTATITVDDSAGGSA [r2_385_TrMRF] gave folding stability dG unfold of -0.408

Lab note: SAGGSAGGSGMSPEALAIKEQVKAEHPDLRVEVKEKILPNGTLEITVTFDDGTTETYTIPIGESAGGSAGGS [r20_210_JUSTAS] gave folding stability dG unfold of 3.36

Lab note: SAGGFKIERERDPDNGIRKIEFRFPDNGYRVKATINPDNDKIHIWGPNPAIREALPELGITNVEVEPWSAGG [r13_511_TrROS] gave folding stability dG unfold of -0.811

Lab note: SAGGSAGGSAGGGIVIEGDIESIEVEKNPDTDYYLVTVRFKSTDKPYTFVFKKDEKLDVSAGGSAGGSAGGS [r10_819_TrMRF] gave folding stability dG unfold of 2.16

Lab note: SAGGSWLPPGMWIISISIKWEMREMTFSPNGQPEMEMRLEIDIQVIKIPPPPPPPKEDAKNPNGKWSAGGSA [r2_495_TrROS] gave folding stability dG unfold of 2.22

Lab note: SEKVKITIEVWRPPGWWYVKIKLPDNGQEITYPFDSAEDFKEQIKKWLGLPPDNVKITDVEVYPMPPDDFSA [r9_909_TrROS] gave folding stability dG unfold of 3.14

Lab note: SAGGSAGGSSAVVPLPDVVLVVLTFPDGGPPVLALLFPPTGRVVFVHPDSVTVAPFAPGGSLLSAGGSAGGS [r12_536_TrMRF] gave folding stability dG unfold of 1.74

Lab note: SAGGSAGGSAGGMIAVLTYKDGTVRDFGPTASLEEILSIPADEIVRIEVRPVLPELGDLLSAGGSAGGSAGG [r7_190_TrMRF] gave folding stability dG unfold of -0.859

Lab note: SAEVIEKTLTETVIGDTVVTPSVVEFPDGSVVEKVTTVSPDGTVTVTTYYFPPDGVRTFLSTTTVPLDLSAG [r14_680_JUSTAS] gave folding stability dG unfold of 1.16

Lab note: SAGGSAGGSPKKRTVEIDEWDPEEGNVRARIRDDDEEREFPFRTPEDLEDLANEGGIDKITPHSAGGSAGGS [r12_421_TrROS] gave folding stability dG unfold of 0.518

Lab note: SFKLPPGQEIKVKIFILFVDPGDGRMYFIKIEYEITIKPDDDGNLDLDIEPTNIEVVGPMPADEAKEFFKSA [r9_423_TrROS] gave folding stability dG unfold of 2.54

Lab note: SMKEPPKVTIEIEYDEETETVRVRITLEDGTEIEVEVEAENKEEALREAIREALKKIFPELTDEQIEKLLSA [r9_634_TrROS_Hall] gave folding stability dG unfold of 1.58

====

experiment: folding stability dG unfold (combined trypsin and chymotrypsin); higher = more stable
Binary classification by folding stability dG unfold, with 2 kcal/mol as an inclusive lower bound for T; all other cases are F.

Exercise: Is folding stability dG unfold for KKYKVPVKEALKVAKKLIEKGYEKVKITAYLPNGEKYEIEDIKEFEEELKKKFPGIKPENLTVEIEVIPKES [r1_325_TrMRF] at or above 2 kcal/mol?
Key: T

Exercise: Is folding stability dG unfold for SAGGSAMSKDVLFENGARITKFFPGKNYVIIETSPENPELLKELGITVIKEGPNRIIVPAKDFLDESAGGSA [r15_984_TrMRF] at or above 2 kcal/mol?
Key: F

Exercise: Is folding stability dG unfold for SAGGSAGGSAGGDVKVTVTVTVDPETGEPVVEVTLELPGDRAIRARFTPDGRLLSVEEVDSAGGSAGGSAGG [r7_454_TrMRF] at or above 2 kcal/mol?
Key: T

Exercise: Is folding stability dG unfold for SATETLTVVETRTVRDPAVPGTTTTETRVTEVTRPAPPPPPLSAEELARALAEAGLLERTDDGELKVVLSAG [r14_582_TrROS_Hall] at or above 2 kcal/mol?
Key: F

Exercise: Is folding stability dG unfold for SAGGMISEEDIEAAAKAIVEAAKNGDPERIEEEYARLEEALEEAEKEGDPERRGRLAKAVEAAKKLLGSAGG [r13_137_TrMRF] at or above 2 kcal/mol?
Key: F

Exercise: Is folding stability dG unfold for SAMDIGPEERAELLLRTLANIAKEEIEKGDLEKAKIFVINGIAEENPPLAERILKEAKELGLPVIILPESAG [r14_908_TrMRF] at or above 2 kcal/mol?
Key: F

Exercise: Is folding stability dG unfold for MPARVEARRIPDEPRLEVVVDFPGYRVVVRVDEGGRVEVEVVWEENVGPEERAAAEEAAEAFAREVAEALGS [r1_468_TrMRF] at or above 2 kcal/mol?
Key: F

Exercise: Is folding stability dG unfold for SAGEKFEPVEEKELTLKITLKDKDGNEKEVEIKVKVEVVKNPDGTLTVRAEITFEDGTKIELELEIKLPSAG [r5_57_TrROS_Hall] at or above 2 kcal/mol?
Key: T

Exercise: Is folding stability dG unfold for SAGGSAGGSAGNKPIMIKAEFPGNGREVEFPIRSPEQAKEFAKRLANQPGFPIKDVDIYPSAGGSAGGSAGG [r11_951_TrROS] at or above 2 kcal/mol?
Key: F

Exercise: Is folding stability dG unfold for SAGGSKPVKVTVRRDPKNPDKWTVTVTAGDKTTTLTFDPNDEAAVRAALEAALPADEVLEELEFEDLLSAGG [r13_519_JUSTAS] at or above 2 kcal/mol?
Key: T

Exercise: Is folding stability dG unfold for SAGGSAGGSAGVTDPNSSKPVPSSYVVVTVRGPEKESYYRVPPSEAAAFAAARGVEVILESAGGSAGGSAGG [r17_109_JUSTAS] at or above 2 kcal/mol?
Key: F

Exercise: Is folding stability dG unfold for SAENGKWVEVELPIEIWMGNDQLDNFIEEARDIARKHGFEITDIPIKYEPSPDGYRRATIPVKITVPLPSAG [r14_109_TrROS] at or above 2 kcal/mol?
Key: F

Exercise: Is folding stability dG unfold for SAGGSAGGSMLPADTKVIKITVESTLPDGSTTTHTVTVPSSVPLEAVKEQLPPGATITEVVLASAGGSAGGS [r12_597_JUSTAS] at or above 2 kcal/mol?
Key: F

Exercise: Is folding stability dG unfold for SAGGSAGGIEITEISRSEELLKLDVPEDTLVLKVKHPDGKEIEVTFPANIPIEEAKEKAKEFVESAGGSAGG [r6_986_TrMRF] at or above 2 kcal/mol?
Key: F

====

assay: folding stability dG unfold from chymotrypsin proteolysis; higher = more stable
Answer each item with its documented folding stability dG unfold.
Dear colleague, please return just the value in kcal/mol, with no unit written.

Lab note: SAGGSMIELTLTSTVPDGTPASTVPPEVAREQALAYAEAQGLTVVEIRVEFDPEAGTITIPVVTALSAGGSA [r2_237_JUSTAS] gave folding stability dG unfold of 0.679

Lab note: SAGGSASNLKVTYKITIGSTTITVTLPEGSEKELKKIPNAEVTPISEIEPAPPPILYFKFENNNLVSAGGSA [r15_443_JUSTAS] gave folding stability dG unfold of 1.25

Lab note: SAGGSAGGSAMVILTPDGYLKVIKSITVEEALDPETDEPVLDVKAEVEVIPLPSLDDPAFKESAGGSAGGSA [r18_6_TrMRF] gave folding stability dG unfold of 0.447

Lab note: SAGDPDRPVVVVIHYVDPETGEPRVEVFPADRIERIEVSPDGVLRIHLPAYGLEIDFPLDVVDHVDIASAGG [r19_416_TrMRF] gave folding stability dG unfold of 2.17

====

assay: folding stability dG unfold (combined trypsin and chymotrypsin); higher = more stable
Answer each item with its documented folding stability dG unfold.

Lab note: SAGGSAKLNITKILSVEFSEDGTIRIKVENENGELYELEIKVKVIPPPEKPEIDPKYLTPEDLEKYSAGGSA [r15_41_TrMRF] gave folding stability dG unfold of 1.6 kcal/mol

Lab note: SMNIISIDIEPYRTGGEPWIYIPIQVPDENMPPSELEEIVEEIFEKLGLPINVKVHRDPNSGTIWIMIRLSA [r9_717_TrROS] gave folding stability dG unfold of 2.75 kcal/mol

Lab note: SAGGSAGGSAGGMRKYLVTLKPPNGPVTRYILPSEEEIKEFVAPLNAEYEVTPLSEDVPPSAGGSAGGSAGG [r7_456_JUSTAS] gave folding stability dG unfold of 0.515 kcal/mol

Lab note: SAGGSAKPKRFVALIKLKGPEGKEIAEIPIVISPDKPEVDIDEIAREIAEKLGVEEIEAEIKEIEESAGGSA [r15_333_TrMRF] gave folding stability dG unfold of 0.498 kcal/mol

Lab note: SMSREELREYARAHPDRPLALILPGKKTLLLFDPATGAEREEDITSVEEAKERLAAQPVAVVEVVSAELLSA [r9_775_JUSTAS] gave folding stability dG unfold of 0.294 kcal/mol

Lab note: SAGGSAGGSVVIPESVISNMKEEEIRELIKKNPKPVLLVTENPEVRKKAEEIFKKEGYPLVVGSAGGSAGGS [r12_97_TrMRF] gave folding stability dG unfold of < -1 kcal/mol

Lab note: SAGGSAGGSAGDNFKIKIESFNIMRLPDGYVMISIKIEITVGDKPVEITIMIIIPPGAPISAGGSAGGSAGG [r17_352_TrROS] gave folding stability dG unfold of 5.68 kcal/mol

Lab note: SAGGSAGGSAFQIEDLKIEKVEFNPDGMVHNELEITLPGGKELEVSIMIDPKKPGKLMIMIVSAGGSAGGSA [r18_97_TrROS] gave folding stability dG unfold of 1.66 kcal/mol

Lab note: SAGGSAGGSAGGMTITVPVEGVEEAIEKAKKEHPNTEIKITLLKPGGEKATTRTVKILGSAGGSAGGSAGGS [r10_741_JUSTAS] gave folding stability dG unfold of -0.951 kcal/mol

Lab note: SAGGSAGGSMEEIIEEIKKKVPKDKYAEIEIEVPFPDGSKKKFKIKFYPETNEFEVEELEEIPSAGGSAGGS [r12_305_TrMRF] gave folding stability dG unfold of 3.88 kcal/mol

Lab note: SAGGGSMVIPVSPEEKEAALKLLEALPSKDVKVTVTDPATGTTTTLTPEEAKKLIEATDTPLVLTLSSAGGS [r16_263_JUSTAS] gave folding stability dG unfold of 3.42 kcal/mol

Lab note: SAGGSAGGSKKKKKVKYKIKVINPEKPEVKEIEIEAENEEEAKKLAEELAKKYPGVKVEIEKTSAGGSAGGS [r12_601_TrROS_Hall] gave folding stability dG unfold of 2.48 kcal/mol

Lab note: SAGGAFPPGEKVEVRIEVVELPGEGTYLLRAYLPGGKLLWERPFPEGELEAFAEEFRSLGFDTVEVTPSAGG [r13_765_TrMRF] gave folding stability dG unfold of 2.69 kcal/mol

Lab note: SAGGSAGGSAPPPPPPVYRIPIEITEIDPNGKITVTLPDLGEEITFPAPNVEVIPGDEFYIPSAGGSAGGSA [r18_89_TrROS] gave folding stability dG unfold of 1.86 kcal/mol
